// reported pest or weed control at 250 µg/mL for each item listed
# Test system: tomato late blight fungi (Phytophthora infestans)
# ASSAY NOTES: whole plant or invertebrate
# Assay type: in vivo
# ASSAY CONDITIONS: read-out: Test F control value class (tomato late blight)

CCC(C)Cn1cc(Cl)c(=O)c(Cl)c1-c1c(F)cc(F)cc1F (centres unmarked) ... < 50%
O=c1c(Br)cn(-c2ccccc2Cl)c(-c2c(F)cc(F)cc2F)c1Br ... < 50%
COc1cc(F)c(-c2c(Cl)c(=O)c(Cl)cn2-c2ccccc2Cl)c(F)c1 ... < 50%
O=c1c(Cl)cn(-c2ccccc2Cl)c(-c2c(F)cc(F)cc2F)c1Cl ... < 50%
Cc1onc(-n2cc(Cl)c(=O)c(Br)c2-c2c(F)cc(F)cc2F)c1Br ... > 50%

Challenge: May I ask what pest or weed control at 250 µg/mL has been recorded for O=c1c(Br)cn(-c2ccccc2Cl)c(-c2c(F)cc(F)cc2F)c1Cl ?
Response given: < 50%

Challenge: May I ask what pest or weed control at 250 µg/mL has been recorded for O=c1c(Cl)cn(Cc2ccccc2)c(-c2c(F)cc(F)cc2F)c1Br ?
Response given: > 50%

Challenge: May I ask what pest or weed control at 250 µg/mL has been recorded for Cc1ccccc1-n1cc(C)c(=O)c(C)c1-c1c(F)cc(F)cc1F ?
Response given: < 50%

Challenge: May I ask what pest or weed control at 250 µg/mL has been recorded for Cc1cc(-n2cc(Cl)c(=O)c(Br)c2-c2c(F)cc(F)cc2F)no1 ?
Response given: < 50%

Challenge: May I ask what pest or weed control at 250 µg/mL has been recorded for O=c1c(Br)cn(-c2cccnc2Cl)c(-c2c(F)cc(F)cc2F)c1Br ?
Response given: > 50%

Challenge: May I ask what pest or weed control at 250 µg/mL has been recorded for COc1cc(F)c(-c2c(C)c(=O)c(C)cn2-c2ccccc2C)c(F)c1 ?
Response given: < 50%
